Biological target: CCK Receptor (Pancreas) (Rattus norvegicus)
Construct: The whole pancreas was dissected free of fat tissue and was homogenized; from tissue; host or cells: rat pancreas membrane homogenate
Assay: CCK Receptor Binding (Pancreas), inhibition of specific 125I-CCK-8 binding
Parameters: species or system Sprague-Dawley rats
Details: rat whole pancreas membranes; 50 pM 125I-CCK-8; 25°C for 2 hours
Structures can show the parent of a compound that is named as a salt.
observed_property: IC50 (nM)

Some solved entries appear below for comparison.
>>> numeric_value("COc1cccc(NC(=O)NC2N=C(N3CCN(C)CC3)c3ccccc3N(C)C2=O)c1 (racemic) [Example 10]")
900
>>> numeric_value("Cc1cccc(NC(=O)NC2N=C(N3CCCC3)c3ccccc3N(C)C2=O)c1 (racemic) [Example 2]")
612

1 = CN1CCN(C2=NC(NC(=O)Nc3cccc(C(F)(F)F)c3)C(=O)N(C)c3ccccc32)CC1 (racemic) [Example 30]
2 = CN1C(=O)C(NC(=O)Nc2ccc(C(C)(C)C)cc2)N=C(N2CCCCCC2)c2ccccc21 (racemic) [Example 50]
Between the entries labelled 1 and 2 , which has a larger IC50 value on record? Use the label to indicate which entry you chose. 1
(1: 2700 nM, 2: 815 nM)

1 = CN1C(=O)C(NC(=O)Nc2cccc(-c3cc(=O)c(O)co3)c2)N=C(N2CCCCCC2)c2ccccc21 (racemic) [Example 62]
2 = CCc1cccc(NC(=O)NC2N=C(N3CCCCCC3)c3ccccc3N(C)C2=O)c1 (single isomer, unassigned; (+)) [Example 68, hydrochloride]
3 = CN1CCN(C2=NC(NC(=O)Nc3cccc(O)c3)C(=O)N(C)c3ccccc32)CC1 (racemic) [Example 11]
4 = CCCN1C(=O)C(NC(=O)Nc2cccc(C)c2)N=C(N2CCCCC2)c2ccccc21 (racemic) [Example 44]
5 = CN1C(=O)C(NC(=O)Nc2ccc3c(c2)CCC3)N=C(N2CCCCCC2)c2ccccc21 (single isomer, unassigned; (+)) [Example 59, hydrochloride]
Given 5 compounds, produce a descending ranking by IC50. Lab note: final answer is the ordered label list. 3, 4, 1, 5, 2

A = Cc1cccc(NC(=O)NC2N=C(N3CCCCCCC3)c3ccccc3N(C)C2=O)c1 (racemic) [Example 43]
B = Cc1cccc(NC(=O)NC2N=C(N3CCN(C)CC3)c3ccccc3N(C)C2=O)c1 (racemic) [Example 4]
Between the entries labelled A and B , which has a larger IC50 value on record? Use the label to indicate which entry you chose. B

1 = CCc1cccc(NC(=O)NC2N=C(N3CCN(C)CC3)c3ccccc3N(CC(C)C)C2=O)c1 (racemic) [Example 23]
2 = Cc1cccc(NC(=O)NC2N=C(N3CCOCC3)c3ccccc3N(C)C2=O)c1 (racemic) [Example 3]
Between the entries labelled 1 and 2 , which has a larger IC50 value on record? Use the label to indicate which entry you chose. 1

----------
Target: CCK Receptor (Pancreas) (Rattus norvegicus, UniProt P30551)
Construct: The whole pancreas was dissected free of fat tissue and was homogenized
Sequence (P30551 whole entry): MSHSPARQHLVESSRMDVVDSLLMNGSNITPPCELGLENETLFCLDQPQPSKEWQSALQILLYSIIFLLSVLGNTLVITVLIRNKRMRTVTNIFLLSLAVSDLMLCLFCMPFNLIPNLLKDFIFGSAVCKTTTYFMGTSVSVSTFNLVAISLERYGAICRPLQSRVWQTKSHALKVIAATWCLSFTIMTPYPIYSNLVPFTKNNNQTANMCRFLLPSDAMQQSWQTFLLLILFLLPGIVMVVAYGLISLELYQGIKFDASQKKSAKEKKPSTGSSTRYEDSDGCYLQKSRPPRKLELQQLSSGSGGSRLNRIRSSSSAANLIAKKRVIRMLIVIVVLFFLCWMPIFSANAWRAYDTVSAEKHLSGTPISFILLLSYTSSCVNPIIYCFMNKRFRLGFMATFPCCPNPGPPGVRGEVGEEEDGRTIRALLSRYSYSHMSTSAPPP
Assay: CCK Receptor Binding (Pancreas), inhibition of specific 125I-CCK-8 binding
Conditions: rat whole pancreas membranes; 50 pM 125I-CCK-8; 25°C for 2 hours
pIC50: −log10 of the molar value. Structures can show the parent of a compound that is named as a salt.
observed_property: pIC50

Some solved entries appear below for comparison.
>>> numeric_value("CN1C(=O)C(NC(=O)Nc2cccc(C(F)(F)F)c2)N=C(N2CCCCCC2)c2ccccc21 (racemic)")
7.50
>>> numeric_value("CCCN1C(=O)C(NC(=O)Nc2cccc(C)c2)N=C(N2CCN(CC)CC2)c2ccccc21 (racemic)")
5.43
>>> numeric_value("CN1C(=O)C(NC(=O)Nc2ccccc2)N=C(N2CCCCCC2)c2ccccc21 (racemic)")
7.85
>>> numeric_value("CN1C(=O)C(NC(=O)Nc2cccc(F)c2)N=C(N2CCCCCC2)c2ccccc21 (racemic)")
8.15
>>> numeric_value("Cc1cccc(NC(=O)NC2N=C(N3CCCCCCC3)c3ccccc3N(C)C2=O)c1 (single isomer, unassigned; (+)) [Example 52, hydrochloride]")
7.93
>>> numeric_value("CCc1cccc(NC(=O)NC2N=C(N3CCCCC3)c3ccccc3N(C)C2=O)c1 (racemic)")
7.60
>>> numeric_value("CCCN1C(=O)C(NC(=O)Nc2cccc(C)c2)N=C(N2CCSCC2)c2ccccc21 (single isomer, unassigned; (-)) [Example 69, hydrochloride]")
6.29
>>> numeric_value("CCc1cccc(NC(=O)NC2N=C(N3CCN(C)CC3)c3ccccc3N(C)C2=O)c1 (racemic)")
5.36
>>> numeric_value("CCCN1C(=O)C(NC(=O)Nc2cccc(C)c2)N=C(N2CCN(C)CC2)c2ccc(N(C)C)cc21 (racemic)")
6.02
>>> numeric_value("Cc1cccc(NC(=O)NC2N=C(N3CCCCCC3)c3ccccc3N(C)C2=O)c1 (racemic) [Example 20]")
8.00

I = CN1C(=O)C(NC(=O)Nc2ccc(F)c(F)c2)N=C(N2CCCCCC2)c2ccccc21 (racemic)
II = CN1C(=O)C(NC(=O)Nc2ccc3c(c2)CCC3)N=C(N2CCCCCC2)c2ccccc21 (single isomer, unassigned; (-)) [Example 58, hydrochloride]
Problem: Given the entries I and II , determine which has the lower reported pIC50. Use the label to indicate which entry you chose. II
